TESTED_SYSTEM: MRCKβ (Homo sapiens (Human))
PROTOCOL: MRCKβ kinase assay (IMAP fluorescence polarization)
Assay type: biochemical
EXPERIMENTAL_PARAMETERS: 1 μM ATP; read-out: MRCK-B Average Ki
Classify: y when Ki is strictly less than 40 nM; n when Ki is not.

>  <COMPOUND>
CN(C)C(=O)C1(N)CCN(c2ccnc3[nH]cc(-c4cncnc4)c23)CC1

>  <TESTED_SYSTEM>
MRCKβ (Homo sapiens (Human))

>  <QUALITATIVE_LABEL>
n

$$$$

Asked: Consider the compound c1ncc(-c2c[nH]c3nccc(N4CCCC(N5CCNCC5)C4)c23)cn1 (stereo not drawn) . Is its Ki strictly less than 40 nM?
Given back: n

Asked: Consider the compound c1ncc(-c2c[nH]c3nccc(N4CC[C@@]5(CCCCN5)C4)c23)cn1 . Is its Ki strictly less than 40 nM?
Given back: y

Asked: Consider the compound c1ncc(-c2c[nH]c3nccc(OCC4CCCNC4)c23)cn1 (stereo not drawn) . Is its Ki strictly less than 40 nM?
Given back: y

Asked: Consider the compound N#Cc1c[nH]c2nccc(N3CCCC3)c12 . Is its Ki strictly less than 40 nM?
Given back: n

Asked: Consider the compound Clc1cncc(-c2c[nH]c3nccc(N4CCCCC4)c23)c1 . Is its Ki strictly less than 40 nM?
Given back: n
